Target: ETS1 (UniProt P14921)
Sequence: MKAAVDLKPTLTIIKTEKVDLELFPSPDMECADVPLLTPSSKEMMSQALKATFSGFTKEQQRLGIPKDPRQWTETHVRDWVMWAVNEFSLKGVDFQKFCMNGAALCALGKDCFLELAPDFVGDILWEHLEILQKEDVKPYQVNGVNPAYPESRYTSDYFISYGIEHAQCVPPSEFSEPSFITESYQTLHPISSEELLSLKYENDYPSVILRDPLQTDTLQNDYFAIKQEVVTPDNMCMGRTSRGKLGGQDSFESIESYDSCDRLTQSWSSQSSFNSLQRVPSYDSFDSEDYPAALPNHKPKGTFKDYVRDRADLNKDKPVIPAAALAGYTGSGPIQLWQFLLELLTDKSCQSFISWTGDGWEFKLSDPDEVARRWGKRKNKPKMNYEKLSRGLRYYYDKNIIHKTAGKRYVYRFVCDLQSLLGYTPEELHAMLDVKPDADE
Protocol: ETS1 binding intensity (PBM fluorescence), ETS1 alone (arbitrary fluorescence units); higher = stronger binding
Assay conditions: ETS1 concentration 1 nM; RUNX1 concentration 0 nM
Consider the reported ETS1 binding intensity of an entry and match it to a band in class A (below 500), class B (500 to below 3000), class C (3000 or more)

Ask: Place this sequence in its band: ACCCTCTTTCCGGTGGAAAGCTGCGGCCTCCCAGAG
Result: class A

Ask: Place this sequence in its band: CTCAGCTCCGCGGAAGTTGCGGTAAGTGGAGCTTTG
Result: class B

Ask: Place this sequence in its band: AAAGGGAAGTTGGCGGGAGTTCAAAACCACCGGGGC
Result: class A

* * *

Target: RUNX1 (UniProt Q01196)
Sequence (Q01196 whole entry): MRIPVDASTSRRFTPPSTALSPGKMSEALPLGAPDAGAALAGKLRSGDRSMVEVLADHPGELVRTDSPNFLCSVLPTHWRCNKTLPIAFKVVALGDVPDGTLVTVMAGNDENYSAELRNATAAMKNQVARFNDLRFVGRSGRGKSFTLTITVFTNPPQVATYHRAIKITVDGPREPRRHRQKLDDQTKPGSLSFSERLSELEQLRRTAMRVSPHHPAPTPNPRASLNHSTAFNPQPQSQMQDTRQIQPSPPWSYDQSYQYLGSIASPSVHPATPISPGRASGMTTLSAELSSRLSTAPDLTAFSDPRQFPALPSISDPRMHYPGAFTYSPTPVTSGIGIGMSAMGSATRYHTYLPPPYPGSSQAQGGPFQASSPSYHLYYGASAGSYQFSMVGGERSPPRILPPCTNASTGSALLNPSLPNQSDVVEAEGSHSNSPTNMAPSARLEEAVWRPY
Protocol: RUNX1 binding intensity (PBM fluorescence) in presence of ETS1, normalised to RUNX1-only experiment (arbitrary fluorescence units); higher = stronger binding
Assay conditions: RUNX1 concentration 2 nM; ETS1 concentration 25 nM
Recorded endpoint: RUNX1 binding intensity
Answer using only a numeral; do not append any unit.

Ask: Quick check: RUNX1 binding intensity of CCAGTACCCCACTTCCTGACCAAACCACAAAGGTCA ?
Result: 8080

Ask: Quick check: RUNX1 binding intensity of AACAGGCAAAGGACAGGATGTGGTGAGCGTCGGCCC ?
Result: 3040

* * *

Target: ETS1 (UniProt P14921)
Sequence: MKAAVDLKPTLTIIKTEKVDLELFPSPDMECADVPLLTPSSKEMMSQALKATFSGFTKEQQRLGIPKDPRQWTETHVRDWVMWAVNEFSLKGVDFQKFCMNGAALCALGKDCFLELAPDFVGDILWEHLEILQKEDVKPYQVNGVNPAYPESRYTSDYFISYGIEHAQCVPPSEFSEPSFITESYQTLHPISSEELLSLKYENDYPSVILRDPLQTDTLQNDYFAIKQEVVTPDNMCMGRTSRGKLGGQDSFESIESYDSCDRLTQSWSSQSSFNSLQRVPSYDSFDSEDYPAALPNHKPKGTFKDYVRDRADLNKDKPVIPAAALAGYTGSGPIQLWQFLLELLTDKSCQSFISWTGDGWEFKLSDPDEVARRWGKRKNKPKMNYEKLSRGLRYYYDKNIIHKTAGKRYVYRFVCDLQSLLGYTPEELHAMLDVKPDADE
Protocol: TF binding intensity (PBM fluorescence), negative control probe (arbitrary fluorescence units); higher = stronger binding
Documented TF binding intensity across a set of sequences
Answer using only a numeral; do not append any unit.

Answered cases to consult:
>  <Residue string>
CTTAGTTCAGTGTAAGGGGCCTGGTTGTTGGATTTT (protein concentration 10 nM)

>  <Target>
ETS1 (UniProt P14921)

>  <TF binding intensity>
119

$$$$
>  <Residue string>
ACCTCATCGAAAGTCTCTCTGGAGGCTGAGTTTGTC (protein concentration 10 nM)

>  <Target>
ETS1 (UniProt P14921)

>  <TF binding intensity>
123

$$$$
>  <Residue string>
ACATGTCAAAGAGCTTCTTTAAGCAGTAGGTGGTTT (protein concentration 10 nM)

>  <Target>
ETS1 (UniProt P14921)

>  <TF binding intensity>
143

$$$$

Ask: Quick check: TF binding intensity of TCAGCAGCTCGTGCTGCTTGAAGTGCTGGGGGCGAG (protein concentration 10 nM) ?
Result: 153

* * *

Documented ETS1 binding intensity across a set of sequences
Target: ETS1 (UniProt P14921)
Sequence: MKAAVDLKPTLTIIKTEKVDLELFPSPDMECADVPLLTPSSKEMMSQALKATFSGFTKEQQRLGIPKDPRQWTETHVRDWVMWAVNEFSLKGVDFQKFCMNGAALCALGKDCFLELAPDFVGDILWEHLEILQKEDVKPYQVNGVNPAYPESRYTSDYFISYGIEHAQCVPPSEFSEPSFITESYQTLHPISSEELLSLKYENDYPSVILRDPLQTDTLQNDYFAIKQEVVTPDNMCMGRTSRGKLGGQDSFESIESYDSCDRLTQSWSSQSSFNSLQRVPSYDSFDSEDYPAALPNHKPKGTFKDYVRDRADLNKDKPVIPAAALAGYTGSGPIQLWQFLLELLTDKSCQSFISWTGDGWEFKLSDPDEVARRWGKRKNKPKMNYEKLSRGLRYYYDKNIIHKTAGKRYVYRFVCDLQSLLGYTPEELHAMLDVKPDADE
Protocol: ETS1 binding intensity (PBM fluorescence) in presence of RUNX1, normalised to ETS1-only experiment (arbitrary fluorescence units); higher = stronger binding
Assay conditions: ETS1 concentration 1 nM; RUNX1 concentration 25 nM
Answer using only a numeral; do not append any unit.

Answered cases to consult:
>  <Residue string>
CAGCTGCCTCCAGGAAGCGGTAAGTGACTCTGGTGG

>  <ETS1 binding intensity>
1660

$$$$
>  <Residue string>
GACTGGTTTCCTGGTTTTGATGTGGTTTAGAGAAAA

>  <ETS1 binding intensity>
630

$$$$
>  <Residue string>
TGGGTACTTCCTGTGACAAATCGAGTTGACCACATG

>  <ETS1 binding intensity>
2230

$$$$
>  <Residue string>
CAAGGTTCCTCCGCTTCCTGCCCGCAGGCCGAACCT

>  <ETS1 binding intensity>
1600

$$$$
>  <Residue string>
GTTGAGTAGTGACAGGAAGTGACCGCAAGGGGGCGC

>  <ETS1 binding intensity>
44800

$$$$
>  <Residue string>
GTGTTCAGACGGAAGCGTTATTCAGTGGTCAGAGCA

>  <ETS1 binding intensity>
1070

$$$$
>  <Residue string>
GTATGGGAAGTGATCTGGCTGCAAACCGCAAGAGAG

>  <ETS1 binding intensity>
2730

$$$$
>  <Residue string>
CAGCTAGAGGAAGCGCTTCGCCCGCGAACCACAGGG

>  <ETS1 binding intensity>
705

$$$$
>  <Residue string>
ACTTACTTCCCGACGTCACAGCCACCGAAACCACAG

>  <ETS1 binding intensity>
464

$$$$
>  <Residue string>
GTATTTATTTCCTCTTCGAAGAAATGCGGGGGTGCC

>  <ETS1 binding intensity>
438

$$$$

Ask: Quick check: ETS1 binding intensity of CCCTGGGGCCCCACTTCCTTGCCCACAAGAAAGGAC ?
Result: 446

Ask: Quick check: ETS1 binding intensity of TGCACTCCACTTCCCCTCGCCCGCAGTGAGCAGTCA ?
Result: 450

* * *

Documented RUNX1 binding intensity across a set of sequences
Target: RUNX1 (UniProt Q01196)
Protocol: RUNX1 binding intensity (PBM fluorescence) in presence of ETS1, normalised to RUNX1-only experiment (arbitrary fluorescence units); higher = stronger binding
Assay conditions: RUNX1 concentration 2 nM; ETS1 concentration 25 nM

>  <Residue string>
TCCCCACACTTCCGGCCCCGCCCGCACAGCCGCACC

>  <RUNX1 binding intensity>
5780

$$$$
>  <Residue string>
ACACCCCAGGAAGTGGCAGAGACCACAACAAGTCAG

>  <RUNX1 binding intensity>
1910

$$$$
>  <Residue string>
CCGCGCACCCGGAACTACCTCCCGACCCGCATCCCC

>  <RUNX1 binding intensity>
1440

$$$$
>  <Residue string>
CTCTGCCCGCTTCCGCTGGCGGTACCTCAGAGCCGC

>  <RUNX1 binding intensity>
4710

$$$$
>  <Residue string>
TACAACTTGCAACGGAAACCACTTCAGGTTCATTAC

>  <RUNX1 binding intensity>
866

$$$$

Ask: Quick check: RUNX1 binding intensity of AGGCTCATTTCCTGTTTTCATGTGGTTTAGAGAAAA ?
Result: 3930

Ask: Quick check: RUNX1 binding intensity of AGCGCTTCCTGGCTCCGGCCCCGCCCCTGCGGTCGG ?
Result: 1880

Ask: Quick check: RUNX1 binding intensity of TGCGACGGAAGCAGGAACTTGCTAACCACAAAACCC ?
Result: 3420

Ask: Quick check: RUNX1 binding intensity of CTTTGTTACTTTGGGGAAATGTGGTTCTGCGCCACC ?
Result: 927

Ask: Quick check: RUNX1 binding intensity of GGACGCCGCCGGAAGCGCGACCCGCACTCCCGGTAG ?
Result: 1260

Ask: Quick check: RUNX1 binding intensity of ACCTGTGTTCTGGCAGGATGTGGTTGACCTCAGCAG ?
Result: 2700

Ask: Quick check: RUNX1 binding intensity of ACTCACACCACGGAAACTGCGGCTCGGCAGGCTGAG ?
Result: 885
